Values compiled from the supplement of paper PMC6555819.

test system: PPARg:RXRa (NR concentration 180 nM, RXRa partner concentration 90 nM); assay: PBM binding z-score (relative to random genomic background probes); higher = stronger binding; sequences stand for … in GC…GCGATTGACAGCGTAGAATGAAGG
Each entry gets NO if its PBM binding z-score stays under 0.9, and YES if its PBM binding z-score is 0.9 or above.

Q: Please check the record CCTTATGGGTCACTCCAGGTTATAGCATCGGAGT and state if its PBM binding z-score is at or above 0.9.
Ans: YES

Q: Please check the record ATGTCTAGGTAAGACTCAGTTCAGTGAAGAACGC and state if its PBM binding z-score is at or above 0.9.
Ans: NO

Q: Please check the record CGAACTAGGTCATTCAGGACAGTGAATACATTGA and state if its PBM binding z-score is at or above 0.9.
Ans: YES

Q: Please check the record CAAACTAGATCACCGGAAGGTCAAAGTCCGCATG and state if its PBM binding z-score is at or above 0.9.
Ans: YES

Q: Please check the record TCGAGTAGGTTCGGGGCATTCAGAATGGCGTCGA and state if its PBM binding z-score is at or above 0.9.
Ans: NO

Q: Please check the record TCTAGCAGGCCAGAGGGTCCCTCAAGAGGTACGG and state if its PBM binding z-score is at or above 0.9.
Ans: NO

Q: Please check the record TCTAGCAGGCCAGATGGTCACTCAAGAGGTACGG and state if its PBM binding z-score is at or above 0.9.
Ans: NO

Q: Please check the record TTACCAAGGTGAGCTGAGGTCCTTGATCCAACTC and state if its PBM binding z-score is at or above 0.9.
Ans: NO

Q: Please check the record GCTACTGGGGCAAAGCAGGTTACCATAAGGTTGG and state if its PBM binding z-score is at or above 0.9.
Ans: YES

Q: Please check the record TTACCAAGGTGAACGTCGTTGATCCCTCTGTAGA and state if its PBM binding z-score is at or above 0.9.
Ans: YES

Q: Please check the record GGAACGAGGGCAAGTGGATAGCAGAGTTTGATGG and state if its PBM binding z-score is at or above 0.9.
Ans: YES
